The measured values listed here are drawn from a melting point compilation (Tetko et al.; mined from patent text by program, amines drawn as free bases though some values may be those of a salt).

Each record here notes measured melting point.

C[C@H](CN(O)C(N)=O)NC(=O)OC(C)(C)C: 156 to 160 °C
Nc1ccc(CCN2CCN(c3ccc(N)cc3Cl)CC2)cc1: 109 to 112 °C
CC(C)OC(=S)NC1(N=NC(C)(C)C)CCCCC1: 62 to 64 °C
Cc1noc(NS(=O)(=O)c2cccc(F)c2)c1Br: 125 to 128 °C
O=c1cc(-c2ccc(OC3CCN(C4CCC4)CC3)cc2)cn[nH]1: 296 to 298 °C

### Prompt Which melting point is listed for CC1CCN(c2c(F)c(N)c3c(=O)c(C(=O)O)cn(C4CC4)c3c2F)CC(C)(C)C1 (stereo unspecified) ?
### Response 148 to 150 °C

### Prompt Look up melting point for this compound: O=C(O)c1cn(-c2ccc(F)cc2F)c2cc(Cl)c(F)cc2c1=O
### Response 90 to 92 °C

### Prompt Suppose we examine the compound COc1ccccc1C(c1ccnc2ccccc12)C(C#N)(Cc1cccnc1)C(=O)OC(C)(C)C (stereo unspecified) ; what melting point value has been reported?
### Response 225 to 228 °C

### Prompt Which melting point is listed for CC1(C)COC(c2ccc(-c3ccc4cc(O)ccc4c3)cc2)=N1 ?
### Response 221 to 223 °C

### Prompt Which measured melting point value corresponds to Nc1cc2c(cn1)[nH]c1ccccc12 ?
### Response 288 to 290 °C

### Prompt Value lookup for melting point; key = COC(=O)c1ccc(=O)n(CCN(C)C(=O)c2cccnc2)c1
### Response 120 to 122 °C

### Prompt For CN(C)C=CC(=O)c1ccc(C(F)(F)F)cc1[N+](=O)[O-] , what is its reported melting point?
### Response 101 °C

### Prompt Requested read-out: melting point. Entry: O=C(NC1CCOCC1)NC12CC3CC(CC(C3)C1)C2
### Response 239 to 242 °C

### Prompt Recorded melting point for CN1C(C)(C)CC(OC(=O)CCc2cc(-n3nc4ccc(S(=O)(=O)c5ccccc5)cc4n3)c(O)c(C(C)(C)C)c2)CC1(C)C , please?
### Response 45 to 52 °C

### Prompt Which melting point is listed for CC(CCc1nnn[nH]1)Oc1cccc(OCc2ccc3ccccc3n2)c1 (stereo unspecified) ?
### Response 147 to 149 °C

### Prompt I am curious: what melting point value has been reported for CC(=O)Nc1nc(/C=C/C(=O)N2CCN(C(=O)c3cc(C(F)(F)F)cc(C(F)(F)F)c3)[C@H](Cc3ccc(C)c(C)c3)C2)cs1 ?
### Response 145 to 149 °C

### Prompt So what does the record say about melting point for CC(C)c1ccc(N(C)C(=O)Cn2cnc3c2c(=O)n(C)c(=O)n3C)cc1 ?
### Response 231 to 233 °C

### Prompt Reported melting point for Cc1ccc(C)n1CCNC(=O)COc1ccc(Cl)cc1 : what is it?
### Response 75 to 77 °C
